System: RPMI-8226 leukemia
assayOverview: NCI-60 one-dose screen, 48 h
conditionSummary: 10 µM unless noted
Compounds without any hit were thinned out: in the full panel of roughly 83,000, 20% have a hit. Active and inactive are the calls of the source. The calls were made as follows: active = growth percent below 10; inactive = the rest.
Log the outcome using a class from active, inactive

CCS(=O)(=O)N1CCCC(C(=O)Nc2nc3ccc(NC(=O)c4ccc(F)c(OC)c4F)cc3s2)C1 (centres undefined); inactive
Cc1ccccc1[C@H]1C(C(=O)c2ccc(Cl)cc2)C2(N[C@@H]1c1ccccc1)C(=O)Nc1ccccc12 (some centres undefined); active
COc1cc(-c2ccc(/C=N/NC(=O)c3[nH]c4ccc(Br)cc4c3-c3ccccc3)s2)cc(OC)c1OC; inactive

Problem: Outcome? CCOC(=O)c1ccc(Nc2nc(NN)nc(-c3ccc(F)cc3)c2C#N)cc1
Solution: inactive

Problem: Outcome? CC1=C(C(=O)OC(C)C)C(c2cccc(O)c2)NC(=S)N1 (centres undefined)
Solution: inactive

Problem: Outcome? C/C(=N\N=C1/C(=O)Nc2ccc(Cl)cc21)c1ccc2c(c1)Nc1ccccc1S2
Solution: inactive

Problem: Outcome? CSc1ccccc1NC(=O)c1ccc2nn(/C(C#N)=C/c3ccccn3)nc2c1
Solution: active

Problem: Outcome? N#Cc1ccc(C(=O)Nn2c(N)cc3ccccc3c2=O)cc1
Solution: inactive

Problem: Outcome? Cc1ccc(-c2nc(C#N)c(S(=O)(=O)N3CCN(S(=O)(=O)c4ccccc4)CC3)o2)cc1
Solution: active

###

Test system: SK-MEL-28 melanoma
assayOverview: NCI-60 one-dose screen, 48 h
conditionSummary: 10 µM unless noted
The panel holds about 83,000 compounds, 20% with a hit somewhere; the sample as a whole holds those more often. Activity calls are given as the source filed them. The calls were made as follows: active = growth percent below 10; inactive = the rest.
Log the outcome using a class from active, inactive

Example results:
CN(C)c1nc(NCCNS(=O)(=O)c2ccc(C(=O)/C=C/c3ccc(Cl)cc3)cc2)nc(Nc2ccc(F)cc2)n1; active
COc1ccc(/C=C/c2n(Cc3ccc4ccccc4c3)c3ccccc3[n+]2Cc2ccc3ccccc3c2)cc1; active
C=C1CCC2C3(C)COC(c4ccc(F)cc4)OC3CCC2(C)C1CC(O)C1=CCOC1=O (stereo not drawn); inactive

Problem: Outcome? O=C(c1ccccc1)c1ccc2nc(-c3ccc(F)cc3)[nH]c2c1
Solution: inactive

Problem: Outcome? CN(C)CCOc1ccc(C(=O)C2[C@H](c3ccc(Cl)cc3)[C@@H](c3ccccc3)NC23C(=O)Nc2ccc(Br)cc23)cc1 (stereo partly drawn)
Solution: inactive

Problem: Outcome? S=C(Nc1ccc(OCc2nc3ccccc3[nH]2)cc1)NC1CCCCC1
Solution: inactive

Problem: Outcome? COc1ccc(-c2nc3cc(C)ccc3n2CC(=O)N=Nc2c(O)[nH]c3ccc(OC)cc23)cc1
Solution: active

Problem: Outcome? C=C1CC[C@@H]2[C@]3(C)COC(c4cn(-c5ccccc5)nc4-c4ccccc4)O[C@@H]3CC[C@@]2(C)[C@@H]1C/C=C1/C(=O)OC[C@H]1O (stereo partly drawn)
Solution: active

###

Tested on: K-562 leukemia
assayOverview: NCI-60 one-dose screen, 48 h (100 = growth as untreated, 0 = no growth, -100 = all killed)
conditionSummary: 10 µM unless noted
About 83,000 compounds went through this panel and 20% of them were active in at least one assay; those are over-represented in the sample as a whole.
observable: growth (%)
Give just the number in %; leave the unit off.

Recorded growth, per entry:
CN1C(=O)/C(=C/c2ccc(C(=O)Nc3ncc(Cc4ccc(Cl)cc4Cl)s3)cc2)SC1=S; 24.3
CN(C)c1nc(NCCNS(=O)(=O)c2ccc(C(=O)/C=C/c3ccc(C(F)(F)F)cc3)cc2)nc(Nc2ccc(F)cc2)n1; -1.07
O=C(/C=C/c1cccc(OCc2ccccc2)c1)c1nc2ccccc2[nH]1; -8.72
C#CCOc1cc(N(CC)CC)ccc1C(C(=O)NC(C)(C)C)N(C(=O)C1CCc2cc(F)ccc2O1)c1ccc(F)c(Cl)c1 (stereo not drawn); 35.7
N#Cc1c(-c2ccccc2Cl)cc(-c2c[nH]c3ccccc23)[nH]c1=O; 20
C=C1CCC2C3(C)COC(c4ccccc4)OC3CCC2(C)C1CC(NCc1ccccc1)C1=CCOC1=O (stereo not drawn); 58.8

Problem: Reported growth, compound C/C(=N\N=C1/C(=O)Nc2ccc(Cl)cc21)c1ccc2c(c1)Nc1ccccc1S2 : ____
Solution: 10

Problem: Reported growth, compound COc1c(F)ccc(C(=O)Nc2ccc3nc(NC(=O)C4CCCN(S(=O)(=O)c5ccc(C(F)(F)F)cc5)C4)sc3c2)c1F (stereo not drawn) : ____
Solution: 64.6
